- System: FLK-1 receptor
- ASSAY_NAME: FLK-1 Assay (cellular/catalytic ELISA, VEGF-stimulated phosphotyrosine)
- Assay type: cell-based
- Set-up: concentration or dose not given beside the values
PARAMETER: Flk Kinase % Inhibition (P.110) (%)
Please give a number only; it is taken to be in %.

{"columns": ["SMILES_STRUCTURE", "ENDPOINT_UNIT", "OBS_VALUE"],
 "data": [
  ["O=C1Nc2ccc(S(=O)(=O)Nc3ccc(C(F)(F)F)cc3)cc2C1=Cc1ccc(Cl)cc1", "%", 8.2],
  ["O=C1Nc2ccc(I)cc2C1=Cc1cc(Br)cc(Br)c1O", "%", 9.1],
  ["O=C1Nc2ccc(I)cc2C1=Cc1cccc(Cl)c1", "%", 3.8],
  ["CNS(=O)(=O)c1ccc2c(c1)C(=Cc1cc(Br)cc(Br)c1O)C(=O)N2", "%", 14.7],
  ["Cc1ccccc1C=C1C(=O)Nc2ccc(S(=O)(=O)N3CCOCC3)cc21", "%", 2.1]
]}

Tell me the measured Flk Kinase % Inhibition (P.110) of O=C1Nc2ccc(S(=O)(=O)N3CCOCC3)cc2C1=Cc1ccc(Cl)cc1Cl , please.
40.0

Tell me the measured Flk Kinase % Inhibition (P.110) of CC(=O)Oc1ccc(C=C2C(=O)Nc3c(Br)cc(Br)c(C)c32)cc1OC(C)=O , please.
−2.5

Tell me the measured Flk Kinase % Inhibition (P.110) of Cc1c(Br)cc(Br)c2c1C(=Cc1ccc(C(=O)O)cc1)C(=O)N2 , please.
4.3

Tell me the measured Flk Kinase % Inhibition (P.110) of Cc1ccccc1C=C1C(=O)Nc2c(Br)cc(Br)cc21 , please.
−13.4

* * *

Below is a list of entries, each paired with its recorded PDGF Kinase % Inhibition (P.119) value.
- Tested on: PDGF-R
- ASSAY_NAME: PDGF-R Assay (cellular ELISA, U1242 cells)
- Format: cell-based
- Set-up: concentration or dose not given beside the values
- TEST_CONTEXT: protocol P.119
Please give a number only; it is taken to be in %.

{"columns": ["MOLECULE", "ENDPOINT_UNIT", "PDGF Kinase % Inhibition (P.119)"],
 "data": [
  ["O=C1Nc2c(Br)cc(Br)cc2C1=CC1COc2ccccc2O1 (stereo not drawn) [10739/A05]", "%", 15.9],
  ["COc1ccc(C=C2C(=O)Nc3ccc(S(=O)(=O)N4CCOCC4)cc32)cc1C [10739/F02]", "%", 6.2]
]}

Tell me the measured PDGF Kinase % Inhibition (P.119) of Cc1c(Br)cc(Br)c2c1C(=Cc1ccc(Cl)cc1)C(=O)N2 [10736/H02] , please.
−6.1

Tell me the measured PDGF Kinase % Inhibition (P.119) of O=C1Nc2ccc(I)cc2C1=Cc1cccc(F)c1F [10737/B05] , please.
19.7

Tell me the measured PDGF Kinase % Inhibition (P.119) of CNS(=O)(=O)c1ccc2c(c1)C(=Cc1cc(F)ccc1F)C(=O)N2 [10737/D04] , please.
9.4

Tell me the measured PDGF Kinase % Inhibition (P.119) of Cc1c(Br)cc(Br)c2c1C(=Cc1ccc(CO)o1)C(=O)N2 [10739/H11] , please.
4.2

Tell me the measured PDGF Kinase % Inhibition (P.119) of O=C1Nc2ccc(S(=O)(=O)N3CCOCC3)cc2C1=Cc1ccoc1 [10739/F10] , please.
4.2

Tell me the measured PDGF Kinase % Inhibition (P.119) of O=C1Nc2ccc(S(=O)(=O)Nc3ccc(C(F)(F)F)cc3)cc2C1=Cc1ccc(CO)o1 [10739/E11] , please.
15.9

Tell me the measured PDGF Kinase % Inhibition (P.119) of CNS(=O)(=O)c1ccc2c(c1)C(=Cc1cccc(OCc3ccccc3)c1)C(=O)N2 [10739/D03] , please.
14.4
